target: Histone acetyltransferase KAT2B (Homo sapiens); experiment: Inhibition of human recombinant N-terminal His-tagged PCAF histone acetyltransferase catalytic domain expressed in Escherichia coli BL21 D3 using biotinylated histone H3 as substrate after 10 mins by TR-FRET analysis relative to control
Sequence (Q92831 whole entry, the tested form may be a part): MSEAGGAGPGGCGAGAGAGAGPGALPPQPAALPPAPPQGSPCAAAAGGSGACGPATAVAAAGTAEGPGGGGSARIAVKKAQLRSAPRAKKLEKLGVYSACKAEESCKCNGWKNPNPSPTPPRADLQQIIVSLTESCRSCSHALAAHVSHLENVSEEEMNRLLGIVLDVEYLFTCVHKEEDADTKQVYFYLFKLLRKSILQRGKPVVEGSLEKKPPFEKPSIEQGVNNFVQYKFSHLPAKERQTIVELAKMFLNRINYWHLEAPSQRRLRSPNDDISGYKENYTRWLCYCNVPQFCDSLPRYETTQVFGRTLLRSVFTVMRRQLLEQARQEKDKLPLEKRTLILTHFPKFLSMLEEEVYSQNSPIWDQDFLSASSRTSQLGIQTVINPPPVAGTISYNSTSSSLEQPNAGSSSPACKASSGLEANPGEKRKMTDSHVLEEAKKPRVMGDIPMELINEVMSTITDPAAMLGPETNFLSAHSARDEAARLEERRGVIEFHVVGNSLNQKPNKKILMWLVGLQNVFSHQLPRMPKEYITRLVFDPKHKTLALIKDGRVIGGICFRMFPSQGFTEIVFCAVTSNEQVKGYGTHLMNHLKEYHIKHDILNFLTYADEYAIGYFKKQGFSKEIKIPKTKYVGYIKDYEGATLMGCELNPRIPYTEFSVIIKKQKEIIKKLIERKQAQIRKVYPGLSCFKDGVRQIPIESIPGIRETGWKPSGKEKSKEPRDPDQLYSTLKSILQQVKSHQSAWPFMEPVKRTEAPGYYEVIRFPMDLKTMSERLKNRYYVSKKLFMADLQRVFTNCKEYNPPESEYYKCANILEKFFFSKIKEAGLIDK
Listed here: items and their measured IC50.
parameter_measured: IC50 (µM)

1. O=C(O)CCCCCN1C(=O)/C(=C2/C(=O)N(Cc3ccc([N+](=O)[O-])cc3)c3ccccc32)SC1=S; 78.2
2. Cc1ccc(CN2C(=O)/C(=C3\SC(=S)N(CCCCCC(=O)O)C3=O)c3ccccc32)cc1; 67.2
3. Cc1ccc(CN2C(=O)/C(=C3\SC(=S)N(C[C@H]4CC[C@H](C(=O)O)CC4)C3=O)c3ccccc32)cc1; 41.8
4. Cc1ccc(CN2C(=O)/C(=C3\SC(=S)N(CCCCCCCC(=O)O)C3=O)c3ccccc32)cc1; 63.7
5. O=C(O)CCCCCN1C(=O)/C(=C2/C(=O)N(Cc3ccc(F)cc3)c3ccccc32)SC1=S; 97.7
6. COc1ccc(CN2C(=O)/C(=C3\SC(=S)N(CCCCCC(=O)O)C3=O)c3ccccc32)cc1; 28.8

====

Quick reference for IC50 among some compounds
molecular target: Histone acetyltransferase KAT2A (Homo sapiens, UniProt Q92830); test: Inhibition of KAT2A (362 to 837) (unknown origin) using biotinylated histone H3 as substrate after 10 mins by TR-FRET analysis relative to control
Sequence (Q92830 whole entry): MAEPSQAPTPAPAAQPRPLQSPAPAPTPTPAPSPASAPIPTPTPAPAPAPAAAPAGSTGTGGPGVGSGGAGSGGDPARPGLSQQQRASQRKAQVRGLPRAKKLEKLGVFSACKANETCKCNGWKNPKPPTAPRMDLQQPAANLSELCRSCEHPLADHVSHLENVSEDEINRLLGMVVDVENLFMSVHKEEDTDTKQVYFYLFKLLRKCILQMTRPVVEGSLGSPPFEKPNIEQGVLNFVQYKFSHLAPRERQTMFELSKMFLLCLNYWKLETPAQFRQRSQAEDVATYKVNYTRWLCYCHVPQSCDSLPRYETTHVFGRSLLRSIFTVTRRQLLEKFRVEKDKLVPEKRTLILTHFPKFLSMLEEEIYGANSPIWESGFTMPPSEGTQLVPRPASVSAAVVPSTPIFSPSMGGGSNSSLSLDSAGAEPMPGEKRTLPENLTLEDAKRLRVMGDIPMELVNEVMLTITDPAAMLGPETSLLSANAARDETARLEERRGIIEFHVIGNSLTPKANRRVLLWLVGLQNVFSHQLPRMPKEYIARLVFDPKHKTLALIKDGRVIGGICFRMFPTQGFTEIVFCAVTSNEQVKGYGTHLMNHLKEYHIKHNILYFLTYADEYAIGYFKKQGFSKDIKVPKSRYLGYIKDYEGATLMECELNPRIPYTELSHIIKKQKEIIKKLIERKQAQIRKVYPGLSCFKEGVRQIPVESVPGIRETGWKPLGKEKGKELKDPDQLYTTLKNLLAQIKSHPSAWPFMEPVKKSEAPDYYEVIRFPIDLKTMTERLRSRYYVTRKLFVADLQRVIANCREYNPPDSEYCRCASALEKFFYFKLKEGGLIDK
parameter_measured: IC50

1) Cc1ccc(CN2C(=O)/C(=C3\SC(=S)N(CCCCCC(=O)O)C3=O)c3ccccc32)cc1; 47 µM
2) O=c1c2cccnc2sn1Cc1ccc(Cl)cc1; 89.9 µM
